experiment: Antimicrobial activity against Leptospira interrogans serovar Icterohaemorrhagiae isolate 9 by broth microdilution method; type: functional; settings: Leptospira interrogans, isolate 9; read-out: MIC
property-measured: MIC (µg/mL)
Kindly answer with a numeric value in µg/mL, unit omitted.

q: // query MIC value for entry C[C@H]1c2cccc(O)c2C(=O)C2=C(O)[C@]3(O)C(=O)C(C(N)=O)=C(O)[C@@H](N(C)C)[C@@H]3[C@@H](O)[C@@H]21.O [DOXYCYCLINE]
a: 0.25

q: Query (molecule): COc1c(N2C[C@@H]3CCCN[C@@H]3C2)c(F)cc2c(=O)c(C(=O)O)cn(C3CC3)c12 [MOXIFLOXACIN] ; field requested: MIC
a: 0.125

q: Can you look up the measured MIC of CN(C)[C@@H]1C(O)=C(C(N)=O)C(=O)[C@@]2(O)C(O)=C3C(=O)c4c(O)cccc4[C@@](C)(O)[C@H]3C[C@@H]12 [TETRACYCLINE] for me?
a: 1

----------
Task for the reader: assign each of the following molecules its reported MIC.
tested on: Leptospira weilii; experiment: Antimicrobial activity against Leptospira weilii isolate 8 by broth microdilution method; assay type: functional; conditions: Leptospira weilii, isolate 8; read-out: MIC
Response body: numeric value in µg/mL, unit text excluded.

q: Bench note: what MIC did C[C@H]1COc2c(N3CCN(C)CC3)c(F)cc3c(=O)c(C(=O)O)cn1c23.C[C@H]1COc2c(N3CCN(C)CC3)c(F)cc3c(=O)c(C(=O)O)cn1c23.O [LEVOFLOXACIN] show?
a: 0.125

q: Any idea what its MIC is? The molecule is CO/N=C(\C(=O)N[C@@H]1C(=O)N2C(C(=O)O)=C(CSc3nc(=O)c(O)nn3C)CS[C@H]12)c1csc(N)n1 [CEFTRIAXONE]
a: 0.03

q: // lookup MIC for O=C(O)c1cn(C2CC2)c2cc(N3CCNCC3)c(F)cc2c1=O [CIPROFLOXACIN]
a: 0.125

q: Reported MIC for CN(C)[C@@H]1C(O)=C(C(N)=O)C(=O)[C@@]2(O)C(O)=C3C(=O)c4c(O)cccc4[C@@](C)(O)[C@H]3C[C@@H]12 [TETRACYCLINE] : what is it?
a: 0.5

q: Looking for the measured MIC of CO/N=C(\C(=O)N[C@@H]1C(=O)N2C(C(=O)O)=C(COC(C)=O)CS[C@H]12)c1csc(N)n1 [CEFOTAXIME] , can you help?
a: 0.03

q: What value of MIC has been reported for the following molecule? C[C@H]1c2cccc(O)c2C(=O)C2=C(O)[C@]3(O)C(=O)C(C(N)=O)=C(O)[C@@H](N(C)C)[C@@H]3[C@@H](O)[C@@H]21.O [DOXYCYCLINE]
a: 0.5

q: Using the record for COc1c(N2C[C@@H]3CCCN[C@@H]3C2)c(F)cc2c(=O)c(C(=O)O)cn(C3CC3)c12 [MOXIFLOXACIN] , report its MIC.
a: 0.125

----------
assay: Antimicrobial activity against Leptospira interrogans serovar Icterohaemorrhagiae isolate 9 by broth microdilution method; type: functional; conditions: Leptospira interrogans, isolate 9; read-out: MIC
property-measured: MIC

q: Could you tell me which MIC is on file for CO/N=C(\C(=O)N[C@@H]1C(=O)N2C(C(=O)[O-])=C(C[N+]3(C)CCCC3)CS[C@H]12)c1csc(N)n1 [CEFEPIME] ?
a: < 0.016 mg/L

q: Item under review: "CO/N=C(\C(=O)N[C@@H]1C(=O)N2C(C(=O)O)=C(CSc3nc(=O)c(O)nn3C)CS[C@H]12)c1csc(N)n1" . Reported MIC?
a: < 0.016 mg/L

q: What value of MIC has been reported for the following compound? "CC[C@H]1OC(=O)[C@H](C)[C@@H](O[C@H]2C[C@@](C)(OC)[C@@H](O)[C@H](C)O2)[C@H](C)[C@@H](O[C@@H]2O[C@H](C)C[C@H](N(C)C)[C@H]2O)[C@](C)(OC)C[C@@H](C)C(=O)[C@H](C)[C@@H](O)[C@]1(C)O"
a: < 0.016 mg/L

Values compiled from ChEMBL document CHEMBL1275427.
